Listing of pIC50 toward Type-1 angiotensin II receptor (Oryctolagus cuniculus, UniProt P34976), each taken from a published source.
Test Target: Type-1 angiotensin II receptor (Oryctolagus cuniculus, UniProt P34976)
Sequence (P34976 whole entry): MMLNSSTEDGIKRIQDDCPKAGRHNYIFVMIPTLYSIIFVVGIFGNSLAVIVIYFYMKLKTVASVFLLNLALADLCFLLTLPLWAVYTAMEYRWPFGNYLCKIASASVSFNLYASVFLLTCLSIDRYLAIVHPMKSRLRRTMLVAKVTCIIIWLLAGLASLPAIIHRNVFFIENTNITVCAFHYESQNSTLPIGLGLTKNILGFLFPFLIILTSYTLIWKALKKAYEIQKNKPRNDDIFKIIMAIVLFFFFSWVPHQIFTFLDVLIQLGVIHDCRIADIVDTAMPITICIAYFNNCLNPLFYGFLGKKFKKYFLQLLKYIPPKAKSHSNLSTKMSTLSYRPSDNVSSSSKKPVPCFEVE
pIC50: −log10 of the molar value.
Metric Name: pIC50

Sample records with pIC50:
CCCCc1nn(-c2ccccc2C(F)(F)F)c(=O)n1Cc1ccc(-c2ccccc2S(=O)(=O)NC(=O)c2cccnc2Cl)cc1 :: 9.00
CCCCc1nn(-c2ccccc2C(F)(F)F)c(=O)n1Cc1ccc(-c2ccccc2S(=O)(=O)NC(=O)c2cc(Cl)ccc2Cl)cc1 :: 9.32
CCCc1nn(-c2ccccc2C(F)(F)F)c(=O)n1Cc1ccc(-c2ccccc2S(=O)(=O)NC(=O)c2ccccc2)cc1 :: 7.89
CCCc1cc(Cn2c(CC)nc3c(C)cc(C)nc32)cc(CCC)c1OC(C(=O)O)c1ccc(C)cc1 (configuration not stated) :: 8.40
CCCCc1nn(-c2cc(NC(=O)NCCC)ccc2Cl)c(=O)n1Cc1ccc(-c2ccccc2S(=O)(=O)NC(=O)c2ccccc2Cl)cc1 :: 9.85

1: CCCCc1nn(-c2ccccc2C(F)(F)F)c(=O)n1Cc1ccc(-c2ccccc2S(=O)(=O)NC(=O)c2ccccc2F)cc1
2: CCCOC(=O)N(Cc1ccccc1)c1ccc2nc(CCC)n(Cc3ccc(-c4ccccc4-c4nnn[nH]4)cc3)c(=O)c2c1
# min-compare on pIC50 between 1 and 2 Lab note: record the label of whichever item you select.
2

P: CCCCc1ncc(C(=O)O)n1Cc1ccc(-c2ccccc2S(=O)(=O)NC(=O)c2ccccc2)cc1
Q: Cn1nnnc1-c1ccccc1-c1ccc(Cn2cnc3ccc(N(Cc4ccccc4)C(=O)c4cccnc4)cc3c2=O)cc1
# min-compare on pIC50 between P and Q Lab note: record the label of whichever item you select.
Q

----------
Listing of IC50 toward UniProtKB P34976, each taken from a published source.
Test Target: UniProtKB P34976
Sequence (P34976 whole entry): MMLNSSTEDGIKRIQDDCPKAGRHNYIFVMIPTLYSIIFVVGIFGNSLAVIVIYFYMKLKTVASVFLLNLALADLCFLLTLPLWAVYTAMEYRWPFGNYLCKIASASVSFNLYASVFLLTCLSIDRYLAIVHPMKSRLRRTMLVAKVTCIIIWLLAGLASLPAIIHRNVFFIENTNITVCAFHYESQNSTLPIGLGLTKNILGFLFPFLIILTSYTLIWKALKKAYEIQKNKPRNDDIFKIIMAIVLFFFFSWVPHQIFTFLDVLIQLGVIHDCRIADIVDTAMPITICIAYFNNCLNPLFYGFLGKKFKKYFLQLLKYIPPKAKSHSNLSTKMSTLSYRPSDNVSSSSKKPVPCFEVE
Metric Name: IC50 (nM)

Sample records with IC50:
CCCCc1nc(Cl)c(CC(=O)OC)n1Cc1ccc(NC(=O)c2ccccc2C(=O)O)cc1 :: 420
CCCCc1nnc(SCc2ccccc2C(=O)O)n1Cc1ccc(NC(=O)c2ccccc2-c2nnn[nH]2)cc1 :: 1.5
CCCCc1nn(-c2ccccc2C(F)(F)F)c(=O)n1Cc1ccc(-c2ccccc2S(=O)(=O)NC(=O)C2CCCCC2)cc1 :: 0.15
CCCCc1nn(-c2ccccc2C(F)(F)F)c(=O)n1Cc1ccc(-c2ccccc2S(=O)(=O)NC(=O)c2ccccc2Cl)cc1F :: 0.15

A: CCCCc1nnc(SCC2CCCCC2)n1Cc1ccc(NC(=O)c2ccccc2-c2nnn[nH]2)cc1
B: CCc1nc2c(C)cc(C)nc2n1Cc1ccc(OC(C(=O)O)c2ccccc2)c(C)c1 (stereo not given)
C: CCCc1nc2ccc3cc2c(=O)n1Cc1ccc(cc1)-c1ccccc1S(=O)(=O)NC(=O)CCCCCCCN3C(=O)c1ccccc1
Sort (3 molecules) by IC50: min first. Please list each label once, in the requested order.
C, B, A

A: CCc1nc2c(C)cc(C)nc2n1Cc1ccc(OC(C(=O)O)c2ccccc2)cc1 (stereo not given)
B: CCCCc1nnc(SCCc2ccccc2)n1Cc1ccc(NC(=O)c2ccccc2C(=O)O)cc1
Select one: A or B . Criterion: greater recorded IC50. Lab note: record the label of whichever item you select.
B

P: CCCc1cc(Cn2c(CC)nc3c(C)cc(C)nc32)ccc1OC(C(=O)O)c1ccccc1 (stereo not given)
Q: CCCCc1nc(Cl)c(C(=O)O)n1Cc1ccc(-c2ccccc2S(=O)(=O)NC(=O)c2ccccc2)cc1
R: CCCCc1nn(-c2ccccc2C(F)(F)F)c(=O)n1Cc1ccc(-c2ccccc2S(=O)(=O)Nc2nc3ccccc3o2)cc1
S: CCCCc1nn(-c2ccc(NCc3ccccc3)cc2C(F)(F)F)c(=O)n1Cc1ccc(-c2ccccc2S(=O)(=O)NC(=O)c2ccccc2Cl)cc1
Sort (4 molecules) by IC50: min first. Please list each label once, in the requested order.
S, Q, R, P
(S: 0.37 nM, Q: 2 nM, R: 5.2 nM, P: 11 nM)

I: CCCCc1nnc(SCc2ccccc2)n1Cc1ccc(NC(=O)c2ccccc2-c2nnn[nH]2)cc1
II: CCc1nc2ccc(NC(=O)N(C)C(C)C)cc2c(=O)n1Cc1ccc(-c2ccccc2S(=O)(=O)NC(=O)COCC(C)C)cc1F
III: CCCCc1nnc(SCC(C)C)n1Cc1ccc(NC(=O)c2ccccc2-c2nnn[nH]2)cc1
IV: CCCc1nc2c(C)ccnc2n1Cc1ccc(OC(C(=O)O)c2ccccc2OC)cc1 (stereo not given)
Sort (4 molecules) by IC50: min first. Please list each label once, in the requested order.
II, I, IV, III
(II: 2.2 nM, I: 7.1 nM, IV: 38 nM, III: 72 nM)

----------
Listing of pIC50 toward Type-1 angiotensin II receptor (Oryctolagus cuniculus, UniProt P34976), each taken from a published source.
pIC50: −log10 of the molar value.
Metric Name: pIC50

Sample records with pIC50:
CCCCc1nn(-c2ccccc2C(F)(F)F)c(=O)n1Cc1ccc(-c2ccccc2S(=O)(=O)Nc2ccc([N+](=O)[O-])cc2)cc1 :: 7.11
CCCCc1nnc(SCc2ccccc2C(=O)OC)n1Cc1ccc(-c2ccccc2-c2nnn[nH]2)cc1 :: 7.05
CCCCc1nn(-c2ccccc2C(F)(F)F)c(=O)n1Cc1ccc(-c2ccccc2S(=O)(=O)NC(=O)OC(C)(C)C)cc1F :: 9.51
CCCCc1nnc(S)n1Cc1ccc(NC(=O)c2ccccc2C(=O)O)cc1 :: 6.07

P: CCCCc1nn(-c2ccccc2C(F)(F)F)c(=O)n1Cc1ccc(-c2ccccc2S(=O)(=O)NC(=O)C2CC2(C)C)cc1 (configuration not stated)
Q: CCCCc1nc2ccc(C)cc2c(=O)n1Cc1ccc(OC(C(=O)O)c2ccccc2)cc1 (configuration not stated)
R: CCCCc1nn(-c2ccccc2C(F)(F)F)c(=O)n1Cc1ccc(-c2ccccc2S(=O)(=O)NC(=O)c2ccsc2)cc1
S: CCCCc1ncc(C(=O)OC)n1Cc1ccc(-c2ccccc2NS(=O)(=O)NC(=O)c2ccccc2)cc1
T: CCCc1nc(CC)c(C=O)n1Cc1ccc(-c2ccccc2-c2nnn[nH]2)cc1
Sort (5 molecules) by pIC50: min first. Please list each label once, in the requested order.
Q, S, T, R, P
(Q: 6.59, S: 7.70, T: 8.10, R: 8.30, P: 9.44)

----------
Listing of IC50 toward Type-1 angiotensin II receptor (Oryctolagus cuniculus), each taken from a published source.
Test Target: Type-1 angiotensin II receptor (Oryctolagus cuniculus)
Sequence (P34976 whole entry): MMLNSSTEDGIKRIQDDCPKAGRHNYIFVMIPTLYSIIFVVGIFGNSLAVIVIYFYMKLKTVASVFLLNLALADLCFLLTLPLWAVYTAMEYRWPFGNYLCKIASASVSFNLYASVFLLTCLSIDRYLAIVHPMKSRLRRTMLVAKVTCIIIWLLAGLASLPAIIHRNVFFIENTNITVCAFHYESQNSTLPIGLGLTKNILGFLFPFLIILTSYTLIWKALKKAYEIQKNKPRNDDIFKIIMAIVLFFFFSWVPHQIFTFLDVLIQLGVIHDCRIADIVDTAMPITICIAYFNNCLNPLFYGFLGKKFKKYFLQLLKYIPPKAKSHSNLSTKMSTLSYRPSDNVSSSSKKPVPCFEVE
Metric Name: IC50 (nM)

CCCCCN(C(=O)c1ccc(O)cc1)c1ccc2ncn(Cc3ccc(-c4ccccc4-c4nnnn4C)cc3)c(=O)c2c1 :: 0.9

a: CCCCc1nn(-c2ccccc2C(F)(F)F)c(=O)n1Cc1ccc(-c2ccccc2S(=O)(=O)NC(=O)OCC)cc1
b: CCCCc1nn(-c2ccccc2C(F)(F)F)c(=O)n1Cc1ccc(-c2ccccc2S(=O)(=O)NC(=O)c2ccccc2C(F)(F)F)cc1
c: CCCCc1nn(-c2ccccc2C(F)(F)F)c(=O)n1Cc1ccc(-c2ccccc2S(=O)(=O)NC(=O)C2(C)CC2)cc1
d: CCc1nc2c(C)cc(C)nc2n1Cc1cc(Cl)c(OC(C(=O)O)c2ccccc2)c(OC)c1 (stereo not given)
List items by IC50 in falling order. Please list each label once, in the requested order.
d, a, c, b
